# Test system: human Hep G2 cells (ATCC HB-8065)
# assayProcedure: Cytotoxicity in Hep G2 cells (CellTiter-Glo)
# Assay type: cell-based
# experimentalContext: Hep G2 cells, 100 μM test article, 24-hour exposure
Where a name gives a salt, the structure may show the parent alone.
Each entry below carries its reported % Cell Viability.
Numeric only. Scale: %

{"columns": ["compound", "% Cell Viability / %"],
 "data": [
  ["Cc1ccc(N2CCN(C)CC2)cc1C(=O)N[C@H](C)c1cccc(C#N)c1", 97.8]
]}

Challenge: Need % Cell Viability of COc1cc([C@@H](C)NC(=O)c2cc(N3CCN(C)CC3)ccc2C)ccc1OCCN1CCOCC1 , thanks.
Response given: 102.3

Challenge: Need % Cell Viability of C[C@@H](NC(=O)c1cccc(N2CCNCC2)c1)c1cccc2ccccc12 [Example 158, Hydrochloride Salt] , thanks.
Response given: 0.8

Challenge: Need % Cell Viability of COc1cc(-c2cn(C)nc2C)cc([C@@H](C)NC(=O)c2cc(N3CCCNCC3)ccc2C)c1 , thanks.
Response given: 40.7

# credit: patent US20240383852A1
